Sourced from the supplement of paper PMC10567573

# protein stability index per record follows
B1: TRIM15 (parent)
chain: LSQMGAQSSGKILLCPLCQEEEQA

Variants of: B1
Assay: protein stability index of a GFP-peptide fusion (GPS, HEK-293T) (PSI 1-6); higher = more stable;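 further: lentivirally expressed fusions sorted by FACS into six bins by GFP to DsRed ratio, PSI derived from sequencing read proportions per bin multiplied by bin number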
Conditions: c terminus: a fixed tail appended

mutant: Q7V
protein stability index: 2.76

Prompt line: Name the recorded protein stability index of the item S8V in your answer.
Response line: 3.51

Prompt line: For the variant G5R , give its measured protein stability index value.
Response line: 3.32

Prompt line: Name the recorded protein stability index of the variant listed here: S2Q
Response line: 4.06

Prompt line: Identify measured protein stability index associated with Q3D
Response line: 3.97

Prompt line: Retrieve protein stability index measured for E22Y and print it.
Response line: 2.02

Prompt line: Supply measured protein stability index of E21D in your reply.
Response line: 3.36

Prompt line: Give the reported value of protein stability index for this record: A6K
Response line: 4.68

Prompt line: Hello, please tell me recorded protein stability index for this one: L1R
Response line: 3.77

Prompt line: # return recorded protein stability index for entry Q3K
Response line: 4.1

Prompt line: Recall and state the measured protein stability index for S8H .
Response line: 3.82

Prompt line: Name the recorded protein stability index of the item M4F in your answer.
Response line: 3.26

Prompt line: Tell us which protein stability index value is on record for S8N
Response line: 3.82

Prompt line: Respond only with protein stability index recorded for K11W
Response line: 2.76

Prompt line: Specify protein stability index for P16F and stop.
Response line: 4.36
